Tested on: C. neoformans ATCC90113
ASSAY NAME: in vitro antifungal activity
Assay type: cell-based, Cryptococcus neoformans
EXPERIMENTAL PARAMETERS: Cryptococcus neoformans, ATCC90113, read-out: C. neoformans MFC
Exercise: for every item that follows, state its recorded MFC.
Kindly answer with a numeric value in µg/mL, unit omitted.

Measured MFC of CCCCCCCCOc1c(OC)cc(NC(C)CCCN)c2nc(C(C)(C)C)ccc12 (stereo not shown) : 5

Measured MFC of CCCCCCCOc1c(OC)cc(NC(C)CCCN)c2nc(C(C)(C)C)cc(C)c12 (stereo not shown) : 1.25

Measured MFC of CCCCCOc1c(OC)cc(NC(C)CCCNC(=O)C(N)Cc2cc3ccccc3[nH]2)c2nc(C(C)(C)C)ccc12 (stereo not shown) : 2.5

###

Tested on: L. donovani promastigotes
ASSAY NAME: in vitro antileishmanial activity, alamarBlue assay
Assay type: cell-based, Leishmania donovani
EXPERIMENTAL PARAMETERS: Leishmania donovani, 48 h, read-out: L. donovani IC50, promastigotes, 48 h
MEASUREMENT NAME: IC50 (µg/mL)
Kindly answer with a numeric value in µg/mL, unit omitted.

Measured IC50 of CCCCCCCOc1c(OC)cc(NC(C)CCCN)c2nc(C(C)(C)C)cc(C)c12 (stereo not shown) : 0.84

Measured IC50 of CCCCCCCOc1c(OC)cc(NC(C)CCCNC(=O)C(N)Cc2cc3ccccc3[nH]2)c2nc(C(C)(C)C)ccc12 (stereo not shown) : 19

Measured IC50 of CCCCCCCOc1c(OC)cc(NC(C)CCCNC(=O)C(N)Cc2ccccc2)c2nc(C(C)(C)C)ccc12 (stereo not shown) : 20

Measured IC50 of CCCCCCCOc1c(OC)cc(NC(C)CCCNC(=O)C(N)CCSC)c2nc(C(C)(C)C)ccc12 (stereo not shown) : 4.1

Measured IC50 of N=C(N)c1ccc(OCCCCCOc2ccc(C(=N)N)cc2)cc1 [pentamidine, reference compound] : 1.4

Measured IC50 of CCCCCCCCOc1c(OC)cc(NC(C)CCCNC(=O)C(N)C(C)CC)c2nc(C(C)(C)C)ccc12 (stereo not shown) : 6.04

Measured IC50 of CCCCCOc1c(OC)cc(NC(C)CCCNC(=O)C(N)Cc2cc3ccccc3[nH]2)c2nc(C(C)(C)C)ccc12 (stereo not shown) : 1.81

###

System: C. krusei ATCC6258
ASSAY NAME: in vitro antifungal activity
Format: cell-based, Candida krusei
MEASUREMENT NAME: C. krusei MFC (µg/mL)
Kindly answer with a numeric value in µg/mL, unit omitted.

Measured C. krusei MFC of CCCCCCCOc1c(OC)cc(NC(C)CCCN)c2nc(C(C)(C)C)ccc12 (centres unmarked) : 5.00

Measured C. krusei MFC of CCCCCCOc1c(OC)cc(NC(C)CCCNC(=O)C2CCCN2)c2nc(C(C)(C)C)ccc12 (centres unmarked) : 10.00

###

Tested on: P. falciparum (D6)
ASSAY NAME: in vitro antimalarial activity, plasmodial LDH
Format: cell-based, Plasmodium falciparum
EXPERIMENTAL PARAMETERS: CQ-sensitive D6 strain, 72 h
MEASUREMENT NAME: P. falciparum (D6) IC50 (µg/mL)
Kindly answer with a numeric value in µg/mL, unit omitted.

Measured P. falciparum (D6) IC50 of CCCCCCOc1c(OC)cc(NC(C)CCCNC(=O)C2CCCN2)c2nc(C(C)(C)C)ccc12 (stereo not shown) : 4

Measured P. falciparum (D6) IC50 of CCCCCCCOc1c(OC)cc(NC(C)CCCNC(=O)C2CCCN2)c2nc(C(C)(C)C)ccc12 (stereo not shown) : 2.4
